Origin of measurements: PubChem BioAssay (Tox21)

- assay-system: Estrogen receptor (Homo sapiens) (UniProt P03372)
- Sequence (P03372 whole entry, looked up): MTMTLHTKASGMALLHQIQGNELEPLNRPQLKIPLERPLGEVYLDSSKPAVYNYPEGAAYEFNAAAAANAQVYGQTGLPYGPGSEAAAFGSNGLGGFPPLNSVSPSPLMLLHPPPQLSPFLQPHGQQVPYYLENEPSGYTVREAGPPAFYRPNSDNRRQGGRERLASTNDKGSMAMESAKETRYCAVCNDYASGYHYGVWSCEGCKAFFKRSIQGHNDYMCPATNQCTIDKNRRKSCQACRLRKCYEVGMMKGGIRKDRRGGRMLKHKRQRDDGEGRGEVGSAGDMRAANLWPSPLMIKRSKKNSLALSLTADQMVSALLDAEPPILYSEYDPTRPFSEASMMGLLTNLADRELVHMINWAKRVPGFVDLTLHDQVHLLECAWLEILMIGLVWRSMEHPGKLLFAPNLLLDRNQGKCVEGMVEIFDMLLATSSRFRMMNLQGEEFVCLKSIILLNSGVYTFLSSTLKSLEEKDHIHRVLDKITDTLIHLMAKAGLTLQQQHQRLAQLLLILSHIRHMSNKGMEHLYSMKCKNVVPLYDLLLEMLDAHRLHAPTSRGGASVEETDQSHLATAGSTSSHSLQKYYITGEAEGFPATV
- measurement-description: qHTS assay to identify small molecule agonists of the estrogen receptor alpha (ER-alpha) signaling pathway using the BG1 cell line (AID 743079); note: nearly all actives have a fitted effect of over 20% in size
- run-parameters: BG1Luc4E2 cells, ERE-luciferase agonist, 22 h; series mostly up to 70.3 µM
Results filed as inconclusive are left out. Active and inactive are the calls of the source. Calls come from the whole dose curve; as a rule, active = well fitted activation curve with a large enough effect in the repeat runs; inconclusive = weak or mixed curves, or effect the other way; inactive = no such curve, though single readings can be large or run the other way.
Labels: YES for active, NO for inactive

- compound: "NCCCN1CCOCC1"
  classification: "NO"
- compound: "CO[C@@H]1[C@H](OC(=O)/C=C/C=C/C=C/C=C/C(=O)O)CC[C@]2(CO2)[C@H]1[C@@]1(C)O[C@@H]1CC=C(C)C"
  classification: "NO"
- compound: "O=[N+]([O-])c1ccc2[nH]ncc2c1"
  classification: "NO"
- compound: "CC(C)CC(=O)C1C(=O)c2ccccc2C1=O"
  classification: "NO"
- compound: "Cc1cc(C(=O)O)ccc1[N+](=O)[O-]"
  classification: "NO"
- compound: "CCC(=O)O[C@]1(C(=O)CCl)[C@@H](C)C[C@H]2[C@@H]3CCC4=CC(=O)C=C[C@]4(C)[C@@]3(F)[C@@H](O)C[C@@]21C"
  classification: "NO"
- compound: "CCCCCCCN"
  classification: "NO"
- compound: "C=CC1CC2C=CC1C2 (stereo unspecified)"
  classification: "NO"
- compound: "O=C(OCCc1ccccc1)c1ccccc1"
  classification: "YES"
- compound: "CCCCCCCCCCCC(=O)OC[C@@H](O)[C@H]1OC[C@H](OCCO)[C@H]1OCCO"
  classification: "NO"
- compound: "COc1ccc(C(=O)N2CCN(CC(=O)N3CCOCC3)CC2)cc1"
  classification: "NO"

----------
- measurement-description: qHTS assay to identify small molecule antagonists of the sonic hedgehog signaling (Shh) pathway - cell viability counter screen (AID 1259367); note: nearly all actives have a fitted effect of over 55% in size
- run-parameters: NIH/3T3 Gli1-Luc viability, CellTiter-Fluor, 24 h; series mostly up to 92.4 µM
Records with an inconclusive call do not appear. Active and inactive are the calls of the source. Calls follow the shape of the dose curve; as a rule, active = well fitted cell-killing curve with a large enough effect in the repeat runs; inconclusive = weak or mixed curves, or effect the other way; inactive = no such curve, though single readings can be large or run the other way.

- molecule: "c1ccc(C(O[C@H]2CCCN(CCc3ccc4c(c3)OCO4)C2)c2ccccc2)cc1"
  outcome: "inactive"
- molecule: "O=C1C(O)=C(O)C(=O)C(O)=C1O"
  outcome: "inactive"
- molecule: "CC(C)(O)c1ccc(CNC(=O)c2cccnc2Oc2ccc(F)cc2)cc1"
  outcome: "inactive"
- molecule: "NCC(=O)CCC(=O)O"
  outcome: "inactive"
- molecule: "O=C(Nc1ccc(S(=O)(=O)N2CCOCC2)cc1)c1cc(Cl)ccc1NS(=O)(=O)c1ccc(Cl)s1"
  outcome: "inactive"
- molecule: "C[C@@H]1C[C@H]2[C@@H]3CCC4=CC(=O)C=C[C@]4(C)[C@@]3(F)[C@@H](O)C[C@]2(C)[C@@]1(O)C(=O)COC(=O)c1ccncc1"
  outcome: "inactive"
- molecule: "CN1Cc2cc(C(=O)N3CCC(C4CCNCC4)CC3)ccc2NC(CC(=O)O)C1=O (stereo unspecified)"
  outcome: "inactive"
- molecule: "O=C(O)C1(C(=O)Nc2ccc(Cl)cc2Cl)CC1"
  outcome: "inactive"
- molecule: "O=C(O)c1ccc(-n2nc(-c3ccccc3O)nc2-c2ccccc2O)cc1"
  outcome: "inactive"
- molecule: "CC(=O)OC[C@H]1O[C@@H](n2ncc(=O)[nH]c2=O)[C@H](OC(C)=O)[C@@H]1OC(C)=O"
  outcome: "inactive"
- molecule: "ClCCOCCOCCCl"
  outcome: "inactive"
